Assay: Quantitative High-Throughput drug screen in 47 multiple myeloma cell lines against the NCATS MIPE library collection: LP1_DSMZ cell viability assay (AID 1918982); also: nearly all actives have a fitted effect of over 35% in size
Details: LP1 myeloma viability, CellTiter-Glo ATP luminescence, 48 h; series mostly up to 45.8 µM
Inconclusive results are not listed. Activity calls are given as the source filed them. Calls follow the shape of the dose curve; as a rule, active = well fitted cell-killing curve with a large enough effect; inconclusive = small, poorly fitted or top-dose-only effect, or effect the other way; inactive = no such curve, though single readings can be large or run the other way.
Outcome field: choose from active, inactive

| MOLECULE | CATEGORY |
| --- | --- |
| COc1ccc2c(c1)c(CC(=O)OCC(=O)O)c(C)n2C(=O)c1ccc(Cl)cc1 | inactive |
| NC(=O)N1c2ccccc2CC(=O)c2ccccc21 | inactive |
| O=C(O)c1cccnc1 | inactive |
| CC(C)NCC(O)c1ccc(NS(C)(=O)=O)cc1 (stereo not drawn) | inactive |

Ask: Fill in: this test's call for CN(C)c1ccc(C(=C2C=CC(=[N+](C)C)C=C2)c2ccc(N(C)C)cc2)cc1 is ___
Result: active

Ask: Please indicate how the test categorized CC(C)C1CCC(C(=O)N[C@H](Cc2ccccc2)C(=O)O)CC1 (stereo partly drawn) .
Result: inactive

Ask: What did this assay record as the result for CC1=C(C(=O)O)N2C(=O)[C@@H](NC(=O)C(N)c3ccccc3)[C@H]2SC1 (stereo partly drawn) ?
Result: inactive

FYI, the data here is from PubChem BioAssay (NCATS).
